- experiment.summary: qHTS of pediatric cancer cell lines to identify multiple opportunities for drug repurposing: Confirmatory screen for A673 cells (AID 1347110);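 also: cells exposed to compound for 48 h before the viability read; nearly all actives have a fitted effect of over 65% in size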
- condition: A673 Ewing sarcoma cell viability; series mostly up to 45.9 µM
Results filed as inconclusive are left out. The source made the active and inactive calls. Calls follow the shape of the dose curve; as a rule, active = well fitted cell-killing curve with a large enough effect; inconclusive = small, poorly fitted or top-dose-only effect; inactive = flat fitted curve, though single readings scatter.
Field 'call' accepts active, inactive

{"molecule": "C[C@@H]1C[C@H]2[C@@H]3CCC4=CC(=O)C=C[C@]4(C)[C@@]3(Cl)[C@@H](O)C[C@]2(C)[C@@]1(OC(=O)c1ccco1)C(=O)CCl", "assigned.label": "active"}
{"molecule": "COc1cc([C@@H]2c3cc4c(cc3[C@H](O)[C@H]3COC(=O)[C@H]23)OCO4)cc(OC)c1OC", "assigned.label": "active"}
{"molecule": "O=S(=O)(O)CCS", "assigned.label": "inactive"}
{"molecule": "CC(C)NCC(O)c1ccc(NS(C)(=O)=O)cc1 (stereo not given)", "assigned.label": "inactive"}
{"molecule": "C[C@@H](CN1CC(=O)NC(=O)C1)N1CC(=O)NC(=O)C1", "assigned.label": "inactive"}
{"molecule": "CCC(=O)O[C@]1(C(=O)CCl)[C@@H](C)C[C@H]2[C@@H]3CCC4=CC(=O)C=C[C@]4(C)[C@@]3(F)[C@@H](O)C[C@@]21C", "assigned.label": "active"}

Dear colleague, could you share the recorded outcome for `Nc1nc(N)nc(-c2cc(Cl)ccc2Cl)n1` when you have a moment?
active

Dear colleague, could you share the recorded outcome for `COc1cc(NCc2ccc3nc(N)nc(N)c3c2C)cc(OC)c1OC` when you have a moment?
active

Dear colleague, could you share the recorded outcome for `CO[C@@]12[C@H](COC(N)=O)C3=C(C(=O)C(C)=C(N)C3=O)N1C[C@@H]1N[C@@H]12` when you have a moment?
active

Dear colleague, could you share the recorded outcome for `CC(C)(C)C(=O)OCOP(=O)(COCCn1cnc2c(N)ncnc21)OCOC(=O)C(C)(C)C` when you have a moment?
active
